- MEASURED_ON: monomeric alpha-synuclein (UniProt P37840 1-140)
- PROCEDURE_DETAILS: SPR, captured mAb
- Procedure: Non-covalent immobilization of alpha-synuclein antibodies was performed using a target immobilization method of 2000 response units (RU). […] Binding affinity of alpha-synuclein antibodies to monomeric or fibrillar alpha-synuclein species was performed using a single-cycle kinetics method. […] Results obtained from single-cycle kinetics were evaluated by Biacore T200 evaluation software with 1:1 binding homogenous Langmuir model (with a global Rmax) with Cycle 5 as a blank subtraction. […]
Reported koff values for a set of binders
Answer in s⁻¹, number only, no unit symbol.

A selection of reference data follows.
| BINDER | MEASUREMENT_UNIT | koff |
| --- | --- | --- |
| ACI-8033-6403A4-Ab1 (antibody, V domains shown, mouse hybridoma mAb; VH/VL only; also called 6403A4A3) VH: EVQLVESGGGLVQPKGSLKLSCAASGFSFNTYAMNWVRQAPGKGLEWVARIRSKSNNYTTYYADSVKDRFTISRDDSESMLYLQMNNLKTEDTAMYYCVRTMDYWGQGTSVTVSS VL: QIVLTQSPAIMSASLGEEITLTCSASSSISYMHWYQQKSGTSPKLLIHSTFNLASGVPSRFSGSGSGTFYSLTISSVEAEDAADYYCHQWSSYYTFGGGTKLEIK | s⁻¹ | 0.044 |
| ACI-8033-21C8-Ab1 (antibody, V domains shown, mouse hybridoma mAb; VH/VL only; also called 917.21C8E4C8) VH: QVQLQQPGAELVKPGASVKMSCKASGYTFTSYWITWVRQRPGQGLDWIGDIYPGGGVTNYNEKFKTKATLTVDTSSSTAYMHLSSLTSEDSAVYFCATAQTTFAYWGQGTLVTVSA VL: DVLMTQTPLSLPVSLGDQASISCRSSQNIVHNNGNTYLEWYLQKPGQSPKLLIYKVSNRFSGVPDRFSGSGSGTDFTLKISRVEAEDLGVYYCFQGSHVPRTFGGGTKLEIK | s⁻¹ | 0.000482 |
| ACI-8032-6314A3-Ab3 (antibody, V domains shown, mouse hybridoma mAb; VH/VL only; also called 6314A3E4) VH: QVQLQQSGAELARPGASVKLSCKASGYTFTSYGVSWVKQRTGQGLEWIGEIYPRSGNTYYNEKFKGKATLTADKSSSTAYMELRSLTSEDSAVYFCASESYYGDYDWYFDVWGTGTTVTVSS VL: DVLMTQIPLSLPVSPGDQVFISCRSSQSIVHSNGNTYLEWYLQKPGQSPKPLIYKVSNRFSGVPDRFSGSGSGTDFTLKISRVEAEDLGVYYCFQGSHVPPTFGGGTKLEIK | s⁻¹ | 0.0382 |
| ACI-7087-4119E10-Ab2 (antibody, V domains shown, mouse hybridoma mAb; VH/VL only; also called 4119E10D12) VH: QVQLQQSGAELVRPGASVTLSCKASGYTFSDYEMNWVKQTPVHGLEWIGAIDPETGGTAYNQKFKGKAILTSDKSSSTAYMELRSLTSEDSAVYYCTRFLLIDFDYWGQGTTLTVSS VL: DVLMTQTPLSLPVSLGDQASISCRSSQSIVHSNGNTYLEWYLKKAGQSPKVLIYKVSNRFSGVPDRFSGSGSGTDFTLKISRVEAEDLGVYYCFQGSHVPYTFGGGTELEIK | s⁻¹ | 0.0188 |
| ACI-8031-6207G10-Ab1 (antibody, V domains shown, mouse hybridoma mAb; VH/VL only; also called 6207G10E6) VH: QVQLQQSGAELVKPGASVKISCKASGYAFSSYWMNWVKQRPGKGLEWIGQIYPGDGDTNYNGKFKGKATLTADRSSSTAYMQLSSLTSEDSAVYFCAITHYDYWGQGTTLTVSS VL: DILLTQSPAILSVSPGDRVSFSCRASQSIGTRIHWYQQRTNGSPRLLIKYASESISGTPSRFSGSGSGTDFTLSINSVESEDIADYYCQQSNSWPLTFGAGTKLELK | s⁻¹ | 0.000314 |
| ACI-7079-3103G12-Ab2 (antibody, V domains shown, mouse hybridoma mAb; VH/VL only; also called 3103G12D2B10) VH: DVQLQESGPGMVKPSQSLSLTCTVTGYSITSGYDWHWIRHFPGNKLEWMGYITYSGSTNYNPSLKSRISITHDTSKNHFFLKLTSVTTEDTATYYCARDTVDAWFAYWGQGTLVTVSA VL: DVLMTQAPLSLPVSLGDQASISCRSSQSIVHSNGDTYLEWYLQKPGQSPKLLIYKVSNRFSGVPDRFSGSGSGTDFTLKISRVEAEDLGVYYCFQGSHVPPTFGGGTKLEIK | s⁻¹ | 0.0014 |
| ACI-7079-3112H1-Ab1 (antibody, V domains shown, mouse hybridoma mAb; VH/VL only; also called 3112H1F3) VH: EVQLQQSGPELVKPGASVKISCKASGYTFSDYFMNWVKQSHGKSLEWIGDINPNNGGSSYIQKFKGKATLTVDKSSTTAYMELRSLTSEDSAVYYCARGSNYAMDSWGQGTSVTVSS VL: DIVMSQSPSSLAVSAGEKVTMSCKSSQSLLNSRTRKNYLAWYQQKPGQSPKLLIYWASTRESGVPDRFTGSGSGTDFTLTISSVQAEDLAVYYCKQSYDLWTFGGGTKLEIK | s⁻¹ | 0.00225 |

Attention now shifts to the item below.
*Q* Look up koff of ACI-7079-3106F2-Ab1 (antibody, V domains shown, mouse hybridoma mAb; VH/VL only; also called 3106F2C8) VH: EVQLQQSGAELVRPGASVKLSCTASGFNVKDDYMHWVKQRPEQGLEWIGWIDPENGDTEYASKFQGKATLTADTSSNTAYLQLSGLTSVDTAVYYCTTAGTSPYYFDYWGQGTTLTVSS VL: DIVMTQSQKFMSTSVGDRVSVTCKASQNVGTNVAWYQQKVGQSPKALIYSASYRYSGVPDRFTGSGSGTDFTLTISNVQSEDLADYFCQQYNSYPLTFGSGTKLEIK and report it.
*A* 0.135
